Just for reference, patent US20150087812A1 is where these values come from.

Target Or Test System: recombinant human ATX beta isoform with N-terminal purification tag (human, UniProt Q13822 49-863)
Assay Remarks: ELISA, Fab-His captured by anti-Fd, 5 nM biotinylated human ATX beta
Measurement Name: Fab Binding

Task: Report Fab Binding for Fab F126 (VH H123, VL L110) (Fab, V domains shown, Soluble Fab-His; converted to mAb B12) VH: QVQLVQSGAEVKKPGSSVKVSCKASGGTFSSYAISWVRQAPGQGLEWMGGIIPIFGTANYAQKFQGRVTITADESTSTAYMELSSLRSEDTAVYYCARDRYYFTVLDYWGQGTLVTVSS VL: EIVLTQSPGTLSLSPGERATLSCRASQSVSSSYLAWYQQKPGQAPRLLIYGASSRATGIPDRFSGSGSGTDFTLTISRLEPEDFAVYYCQQATAFPLTFGQGTKVEIK please.
Result: 2.4e+06 relative chemiluminescence units

Task: Moving on to the next binder: Fab F40 (VH H32, VL L42) (Fab, V domains shown, Soluble Fab-His; converted to mAb B16; the Fab's H32 may differ in FR1) VH: EVQLVQSGGGLVQPGGSLRLSCAASGFTFSSYAMSWVRQAPGKGLEWVSVINSDGSSIYYADSVKGRFTISRDNSKNTLYLQMNSLRAEDTAVYYCAKLEAIDYAWGFDYWGQGTLVTVSS VL: EIVLTQSPATLSLSPGERATLSCRASQSVADSLAWYQQKPGQAPRLLIYNASNRATGIPARFSGSGSGTDFTLTISSLEPEDFAVYYCQQSFHWPLTFGQGTKVEIK
Result: 8.1e+06 relative chemiluminescence units

Task: Moving on to the next binder: Fab F93 (VH H86, VL L79) (Fab, V domains shown, Soluble Fab-His) VH: QVQLVQSGAEVKKPGSSVKVSCKASGGTFSSYAISWVRQAPGQGLEWMGGIIPIFGTANYAQKFQGRVTITADESTSTAYMELSSLRSEDTAVYYCARDTFWFTVFDYWGQGTLVTVSS VL: EIVLTQSPGTLSLSPGERATLSCRASQSVSSSYLAWYQQKPGQAPRLLIYGASSRATGIPDRFSGSGSGTDFTLTISRLEPEDFAVYYCQQSNTLPLTFGQGTKVEIK
Result: 1.6e+06 relative chemiluminescence units

Task: Moving on to the next binder: Fab F9 (VH H2, VL L8) (Fab, V domains shown, Soluble Fab-His) VH: QVQLVQSGAEVKKPGSSVKVSCKASGGTFSSYAISWVRQAPGQGLEWMGGIIPIFGTANYAQKFQGRVTITADESTSTAYMELSSLRSEDTAVYYCARDDLPLGRLDYWGQGTLVTVSS VL: EIVLTQSPATLSLSPGERATLSCRASQSVAKDLAWYQQKPGQAPRLLIYTASNRATGIPARFSGSGSGTDFTLTISSLEPEDFAVYYCQQGINWPFTFGQGTKVEIK
Result: 1e+06 relative chemiluminescence units

Task: Moving on to the next binder: Fab F142 (VH H146, VL L121) (Fab, V domains shown, Soluble Fab-His) VH: QVQLVQSGAEVKKPGSSVKVSCKASGGTFSSYAISWVRQAPGQGLEWMGGIIPIFGTANYAQKFQGRVTITADESTSTAYMELSSLRSEDTAVYYCARGDYNAIYYALDYWGQGTLVTVSS VL: DIQMTQSPSSLSASVGDRVTITCRASQSISSYLNWYQQKPGKAPKLLIYAASSLQSGVPSRFSGSGSGTDFTLTISSLQPEDFATYYCQQPISFPYTFGQGTKVEIK
Result: 1.3e+06 relative chemiluminescence units
